The measurements presented in this section are drawn from patent US4245106A.

# System: Nutsedge
# assay-overview: pre-emergent herbicidal activity test; also: ranges in brackets are in %
# Assay type: in vivo
# condition-description: 11.2 Kg/Ha; approximately 28 days after seeding and treating
reported-endpoint: Pre-Emergent herbicidal rating, G Nutsedge

- CCC(C)OC(=O)c1cn(C)nc1-c1cccc(C(F)(F)F)c1 (stereo not drawn): 0 (0-24)
- CCOC(=O)c1cn(C)nc1-c1cc(C(F)(F)F)cc(C(F)(F)F)c1: 0 (0-24)

Hey, quick one: what's Pre-Emergent herbicidal rating, G Nutsedge for each of these?
1. CCCCOC(=O)c1cn(C)nc1-c1cccc(C(F)(F)F)c1
2. CCOC(=O)c1cn(CC)nc1-c1cccc(C(F)(F)F)c1
3. CCOC(=O)c1cn(C)nc1-c1cccc(C(F)(F)F)c1
4. CCOC(=O)c1cn(C)nc1-c1ccc(C(F)(F)F)cc1

Found:
1. 0 (0-24)
2. 0 (0-24)
3. 0 (0-24)
4. 1 (25-49)

###

Provide the reported Pre-Emergent herbicidal rating, C Velvetleaf of each item.
# Tested on: Velvetleaf
# assay-overview: pre-emergent herbicidal activity test; also: ranges in brackets are in %
# Assay type: in vivo
# condition-description: 11.2 Kg/Ha; approximately 28 days after seeding and treating

• CCOC(=O)c1cn(C)nc1-c1cccc(C(F)(F)F)c1 [Example 12] = 3 (75-100)

Can you give me Pre-Emergent herbicidal rating, C Velvetleaf for all of these, one by one?
1. CCOC(=O)c1cn(CC)nc1-c1cccc(C(F)(F)F)c1 [Example 1]
2. CCCCOC(=O)c1cn(C)nc1-c1cccc(C(F)(F)F)c1 [Example 30]
3. CCC(C)OC(=O)c1cn(C)nc1-c1cccc(C(F)(F)F)c1 (stereo not drawn) [Example 20]
4. CCOC(=O)c1cn(C)nc1-c1ccc(C(F)(F)F)cc1 [Example 17]

Found:
3 (75-100)
1 (25-49)
0 (0-24)
0 (0-24)

Lookup: What value of measured Pre-Emergent herbicidal rating, C Velvetleaf is listed for CCOC(=O)c1cn(C)nc1-c1cc(C(F)(F)F)cc(C(F)(F)F)c1 [Example 10] ?
Found: 0 (0-24)

###

# System: Canada Thistle
# assay-overview: post-emergent herbicidal activity test; also: ranges in brackets are in %
# Assay type: in vivo
# condition-description: *11.2 Kg/Ha; observed approximately 14 days after treatment
# Description: The post-emergent tests were conducted as follows. The active ingredients are applied in spray form to two or three-week old specimens of various plant species. The spray, a solution or wettable powder suspension containing the appropriate rate of active ingredient to give the desired test rate and a surfactant, is applied to the plants. The treated plants are placed in a greenhouse and unless otherwise noted approximately four weeks later the effects are observed and recorded.
Give Post-Emergent herbicidal rating, A Canada Thistle for every item shown.

A selection of reference data follows.
• CCOC(=O)c1cn(C)nc1-c1cc(C(F)(F)F)cc(C(F)(F)F)c1 = 2 (50-74)
• CCOC(=O)c1cn(CC)nc1-c1cccc(C(F)(F)F)c1 = 1 (25-49)
• CCCCCCOC(=O)c1cn(C)nc1-c1cccc(C(F)(F)F)c1 = 1 (25-49)
• CCOC(=O)c1cn(C)nc1-c1cccc(C(F)(F)F)c1 = 1 (25-49)

Lookup: What value of measured Post-Emergent herbicidal rating, A Canada Thistle is listed for Cn1cc(C(=O)OCCOc2ccccc2)c(-c2cccc(C(F)(F)F)c2)n1 ?
Found: 1 (25-49)
